- System: OVCAR-4 ovarian
- test-method-notes: NCI-60 one-dose screen, 48 h
- run-parameters: 10 µM
This is part of a sample that, as a whole, favours compounds with a hit. Of some 83,000 tested, about 20% had one in any assay. Activity calls are given as the source filed them. Rule for the calls: active = growth percent below 10; inactive = the rest.
Use one of these outcomes when replying: true for active, false for inactive

INSERT INTO assay_data (compound, classification) VALUES
  ('Cc1cc(=O)n2nnc3cc(Cl)c(Cl)cc3n12', 'false'),
  ('C/C=C/C1=CN2C(=O)c3cc(OC4OC(C)C(NC)C(C)(O)C4O)c(C)c(O)c3N=C[C@@H]2C1 (some centres not stated)', 'true'),
  ('CC(=O)Nc1ccc(CC[C@H]2CCC/C=C/[C@@H]3C[C@H](O)C[C@H]3[C@H](O)/C=C/C(=O)O2)cc1', 'false'),
  ('O=C1c2ccccc2-c2c1c1cccnc1c(=O)n2C[C@H](O)CO', 'false');

Per the assay record, what outcome was assigned to CC(C)(C)c1ccc(S(=O)(=O)N[C@H]2CC[C@H]3[C@@H]4CCc5cc(O)c([N+](=O)[O-])cc5[C@H]4CC[C@]23C)cc1 ?
false

Check C[C@]12CC[C@@H]3c4ccc(OS(=O)(=O)O)cc4CC[C@H]3[C@@H]1CC[C@@H]2NS(=O)(=O)c1ccc(-c2ccccc2)cc1 too.
false

Same again, this time with CCC(=O)OC1CCC2C3CCC(=O)OC3C(C)(CCC(=O)O)CC12C (configuration not stated)
false

Subsequent entry: O=C(Nc1ccc(OCc2nnc(-c3ccc(Cl)cc3)o2)c(F)c1)Nc1ccc(Cl)c(C(F)(F)F)c1
false

Same thing, different compound: CSc1nc2c(c(=O)n1C)CN(Cc1ccccc1)C(=O)CN2
false

// next record CCOS(=O)(=O)c1c(C(C)C)cc(C(C)C)cc1C(C)C
false

Also need CC(C)c1cc(N=O)cc(C(C)C)c1O , thanks.
false

And what about the compound Cc1cc(CC(C)CC(C)(C)C)n(O)c(=O)c1 (configuration not stated) (tested in a mixture with another compound) ?
false

Check COc1cc(-c2ccc(N=Nc3ccc4c(S(=O)(=O)O)ccc(N)c4c3O)c(OC)c2)ccc1N=Nc1ccc2c(S(=O)(=O)O)ccc(N)c2c1O too.
false

Repeat with COc1cc2c(Nc3ccc(S(N)(=O)=O)cc3)ncnc2c(OC)c1OC
false

Also Cc1ccccc1N1C(=O)c2cc(S(N)(=O)=O)c(Cl)cc2NC1C (configuration not stated) , if possible.
false

Cool, now O=C(/C=C/C=C/c1c(C2CC2)nc2ccccc2c1-c1ccc(F)cc1)c1cccs1
false

Field entry: CCOC(=O)C(C)(c1ccccc1)c1ccccc1
false

// next record CC(C)(C)OC(=O)N1CCc2c(sc3ncnc(N/N=C/c4ccc(Br)cc4)c23)C1
false

Try COc1ccc(-c2cc(-c3ccc(OC)c(OC)c3)nc(SCCCC(=O)NO)n2)cc1 next.
false

# repeat for Cc1cc(NC(=O)c2ccc(C)c(Nc3nccc(-c4cccnc4)n3)c2)cc(-n2cnc(C)c2)c1
true

Follow-up entry: CCCCN(CCCC)C(=O)[C@H](CC)[C@@H]1CC[C@@H](C)[C@@H]([C@H](C)[C@@H](O)[C@@H](C)C(=O)[C@H](CC)C2O[C@]3(C=CC(=O)[C@]4(CC[C@@](C)([C@H]5CC[C@](O)(CC)[C@H](C)O5)O4)O3)[C@H](C)C[C@@H]2C)O1 (some centres not stated)
false

What do you have for OCCn1cccn1 ?
false

Also COC(=O)C1(O)NC(=C(C#N)C#N)C(C#N)=C1C(=O)c1ccc(OC)c(OC)c1 (configuration not stated) , if possible.
false
